# credit: paper PMC4772116

assayed.target: human α3β2 nAChR (Homo sapiens, UniProt P17787+P32297)
Sequence (P32297 32-505 limits assumed): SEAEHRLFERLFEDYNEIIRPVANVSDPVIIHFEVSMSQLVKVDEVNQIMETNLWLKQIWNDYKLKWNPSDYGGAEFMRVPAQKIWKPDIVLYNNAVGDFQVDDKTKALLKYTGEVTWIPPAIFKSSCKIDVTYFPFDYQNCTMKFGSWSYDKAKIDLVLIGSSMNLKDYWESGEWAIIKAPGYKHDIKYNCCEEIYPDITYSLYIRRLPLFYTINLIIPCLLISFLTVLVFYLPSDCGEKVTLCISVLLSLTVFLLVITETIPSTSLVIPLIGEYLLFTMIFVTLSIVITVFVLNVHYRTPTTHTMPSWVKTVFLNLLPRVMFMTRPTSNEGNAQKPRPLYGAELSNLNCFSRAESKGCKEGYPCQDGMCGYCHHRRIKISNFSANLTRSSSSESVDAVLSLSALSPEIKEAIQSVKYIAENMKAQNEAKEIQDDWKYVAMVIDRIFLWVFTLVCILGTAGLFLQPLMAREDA
Sequence (P17787 26-502 limits assumed): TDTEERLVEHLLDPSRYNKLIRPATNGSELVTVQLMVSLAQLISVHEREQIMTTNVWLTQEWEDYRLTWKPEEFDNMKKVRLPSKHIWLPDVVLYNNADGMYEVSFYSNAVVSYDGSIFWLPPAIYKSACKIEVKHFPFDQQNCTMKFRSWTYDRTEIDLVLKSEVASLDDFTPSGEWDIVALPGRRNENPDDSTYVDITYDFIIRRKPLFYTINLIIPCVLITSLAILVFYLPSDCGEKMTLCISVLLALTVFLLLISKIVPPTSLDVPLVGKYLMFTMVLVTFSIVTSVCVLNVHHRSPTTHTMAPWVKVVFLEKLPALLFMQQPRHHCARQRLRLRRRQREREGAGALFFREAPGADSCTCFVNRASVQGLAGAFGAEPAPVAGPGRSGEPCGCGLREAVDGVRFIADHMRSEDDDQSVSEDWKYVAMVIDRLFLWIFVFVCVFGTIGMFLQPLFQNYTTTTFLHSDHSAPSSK
protocol: cell-based
Where a SMILES comes first, the peptide text is derived from it. Bridges are numbered along the chain shown (N, C = ends).
Answer each item with its documented IC50.
One number for each entry, in nM.

Answered cases to consult:
CC[C@H](C)[C@@H]1NC(=O)[C@H](Cc2c[nH]cn2)NC(=O)[C@H](CCC(N)=O)NC(=O)[C@H](CC(N)=O)NC(=O)[C@H](CC(N)=O)NC(=O)CNC(=O)[C@H](C)NC(=O)[C@@H]2CSSC[C@H](NC(=O)CN)C(=O)N[C@@H](CSSC[C@@H](C(N)=O)NC1=O)C(=O)N[C@@H](CO)C(=O)N[C@@H](Cc1c[nH]cn1)C(=O)N1CCC[C@H]1C(=O)NCC(=O)N2 [GIC(A7G)] (H-GCCSHPGCAGNNQHIC-NH2; disulfide 2-8, 3-16) :: 4210
CC[C@H](C)[C@@H]1NC(=O)[C@H](Cc2c[nH]cn2)NC(=O)[C@H](CCC(N)=O)NC(=O)[C@H](C)NC(=O)[C@H](CC(N)=O)NC(=O)CNC(=O)[C@H](C)NC(=O)[C@@H]2CSSC[C@H](NC(=O)CN)C(=O)N[C@@H](CSSC[C@@H](C(N)=O)NC1=O)C(=O)N[C@@H](CO)C(=O)N[C@@H](Cc1c[nH]cn1)C(=O)N1CCC[C@H]1C(=O)N[C@@H](C)C(=O)N2 [GIC(N12A)] (H-GCCSHPACAGNAQHIC-NH2; disulfide 2-8, 3-16) :: 1980
CC[C@H](C)[C@@H]1NC(=O)[C@H](Cc2c[nH]cn2)NC(=O)[C@H](C)NC(=O)[C@H](CC(N)=O)NC(=O)[C@H](CC(N)=O)NC(=O)CNC(=O)[C@H](C)NC(=O)[C@@H]2CSSC[C@H](NC(=O)CN)C(=O)N[C@@H](CSSC[C@@H](C(N)=O)NC1=O)C(=O)N[C@@H](CO)C(=O)N[C@@H](Cc1c[nH]cn1)C(=O)N1CCC[C@H]1C(=O)N[C@@H](C)C(=O)N2 [GIC(Q13A)] :: 8.41

Now look at this one.
Prompt: Data request, read-out IC50, for CC[C@H](C)[C@@H]1NC(=O)[C@H](Cc2c[nH]cn2)NC(=O)[C@H](CCC(N)=O)NC(=O)[C@H](CC(N)=O)NC(=O)[C@H](C)NC(=O)CNC(=O)[C@H](C)NC(=O)[C@@H]2CSSC[C@H](NC(=O)CN)C(=O)N[C@@H](CSSC[C@@H](C(N)=O)NC1=O)C(=O)N[C@@H](CO)C(=O)N[C@@H](Cc1c[nH]cn1)C(=O)N1CCC[C@H]1C(=O)N[C@@H](C)C(=O)N2 [GIC(N11A)] (H-GCCSHPACAGANQHIC-NH2; disulfide 2-8, 3-16)
Completion: 1600

---

assayed.target: human α3β4 nAChR (Homo sapiens, UniProt P30926+P32297)
Sequence (P30926 22-498 limits assumed, one chain of several): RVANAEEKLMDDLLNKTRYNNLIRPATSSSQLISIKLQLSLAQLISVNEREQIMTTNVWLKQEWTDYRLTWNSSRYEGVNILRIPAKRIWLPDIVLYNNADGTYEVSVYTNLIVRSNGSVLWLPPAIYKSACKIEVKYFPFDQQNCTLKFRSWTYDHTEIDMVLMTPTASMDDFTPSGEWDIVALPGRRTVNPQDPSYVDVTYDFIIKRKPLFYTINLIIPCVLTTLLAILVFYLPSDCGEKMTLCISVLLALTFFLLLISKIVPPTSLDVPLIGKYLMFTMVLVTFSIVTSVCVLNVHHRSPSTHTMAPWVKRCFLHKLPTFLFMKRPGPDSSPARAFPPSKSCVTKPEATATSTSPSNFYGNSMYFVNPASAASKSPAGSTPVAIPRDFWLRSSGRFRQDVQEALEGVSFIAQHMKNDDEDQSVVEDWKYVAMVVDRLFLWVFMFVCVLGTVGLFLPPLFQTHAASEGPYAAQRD
protocol: cell-based
readout.type: pIC50
Answers are plain numbers, as −log10 of the molar value.

Prompt: Data request, read-out pIC50, for CC[C@H](C)[C@@H]1NC(=O)[C@H](Cc2c[nH]cn2)NC(=O)[C@H](C)NC(=O)[C@H](CC(N)=O)NC(=O)[C@H](CC(N)=O)NC(=O)CNC(=O)[C@H](C)NC(=O)[C@@H]2CSSC[C@H](NC(=O)CN)C(=O)N[C@@H](CSSC[C@@H](C(N)=O)NC1=O)C(=O)N[C@@H](CO)C(=O)N[C@@H](Cc1c[nH]cn1)C(=O)N1CCC[C@H]1C(=O)N[C@@H](C)C(=O)N2 [GIC(Q13A)]
Completion: 6.18
